Assay: qHTS for Inhibitors of human tyrosyl-DNA phosphodiesterase 1 (TDP1): qHTS in cells in presence of CPT; further: nearly all actives have a fitted effect of over 55% in size
Settings: chicken DT40 Tdp1-/-;hTDP1 cells + 20 nM CPT, ATP luminescence, 48 h; series mostly up to 46.2 µM
In all, about 420,000 compounds went through this assay and about 50,000 (12%) were called active. Not shown: some 26% with an inconclusive outcome. The call rests on the fitted dose curve; in most records, active means well fitted inhibition curve with a large enough effect; inconclusive means small, poorly fitted or top-dose-only effect; inactive means flat fitted curve, though single readings scatter. Many of the other results were omitted from the sample, so actives are more common in it than they were.
Valid outcomes are listed here; reply with one: active, inactive

COc1ccc(CNC(=O)c2cc3c(=O)[nH]c4ccc(C)cc4c3s2)c(OC)c1 = active

Please state the recorded outcome for this compound: COc1ccc(CNC(=O)c2cc3c(=O)[nH]c4ccccc4c3s2)cc1
inactive

Assay outcome for Cc1ccccc1NC(=O)c1nn(-c2ccc(F)c(F)c2)ccc1=O : what was it?
inactive

Assay result, entry O=C(c1c(F)cccc1F)N1CCN(c2ncc(Br)cn2)CC1 — outcome?
inactive

Any idea what this test logged for COc1ccc(CNC(=O)c2ccc3c(c2)nc2n3CCOC2)c(OC)c1 ?
inactive

Any idea what this test logged for CC(=O)NC1CCN(CC(=O)Nc2nccs2)CC1 ?
inactive

All values here come from PubChem BioAssay AID686979.
